Every entry's value here was drawn from ChEMBL document CHEMBL4325928.

For each record, write down the corresponding Stability.
- assay.text: Stability in human liver microsomes assessed as parent compound remaining
- Assay type: ADME, Microsome
Number plus unit, in that order.

{"columns": ["smi", "Stability"],
 "data": [
  ["CCN(c1cc2oc(-c3ccc(F)cc3)c(C(=O)NC)c2cc1-c1cccc(C(=O)NC2(c3ncccn3)CC2)c1)S(C)(=O)=O", "100%"]
]}

Batch request: Stability for each of the following compounds.
1. CNC(=O)c1c(-c2ccc(F)cc2)oc2cc(N(CCO)S(C)(=O)=O)c(-c3cccc(C(=O)NC4(c5ccccc5)CC4)c3)cc12
2. CNC(=O)c1c(-c2ccc(F)cc2)oc2ccc(-c3cccc(C(=O)NC4(c5ccccn5)CC4)c3)cc12

Result:
63%
91%

Data point: `CNC(=O)c1c(-c2ccc(F)cc2)oc2cc(N(CCO)S(C)(=O)=O)c(-c3cccc(C(=O)NC4(c5ccccn5)CC4)c3)cc12` ; Stability = 99%

----------
- assay.text: Permeability of the compound at pH 7.4 by PAMPA
- Format: ADME
- run.parameters: read-out: permeability
property.name: Papp (×10⁻⁶ cm/s)
Answers are plain numbers, in ×10⁻⁶ cm/s.

Use the examples below as a reference point.
{"columns": ["smi", "Papp, ×10⁻⁶ cm/s"],
 "data": [
  ["CCN(c1cc2oc(-c3ccc(F)cc3)c(C(=O)NC)c2cc1-c1cc(F)c(F)c(C(=O)NC2(c3ncccn3)CC2)c1)S(C)(=O)=O", 73.1],
  ["CCN(C(=O)N(C)C)c1cc2oc(-c3ccc(F)cc3)c(C(=O)NC)c2cc1-c1ccc(OC)c(C(=O)NC2(c3ncccn3)CC2)c1", 57.5]
]}

# ---- query molecule ----
Data point: `CCNc1cc2oc(-c3ccc(F)cc3)c(C(=O)NC)c2cc1-c1ccc(OC)c(C(=O)NC2(c3ncccn3)CC2)c1` ; Papp = 72

----------
For each record, write down the corresponding Papp B→A at 2 h, 3 µM.
- assay.text: Permeability across basolateral side to apical side in human Caco2 cells expressing p-gp at 3 uM incubated for 2 hrs by LC-MS/MS analysis
- Type: ADME, cell-based
- run.parameters: Caco-2, read-out: permeability
Give bare numbers, in ×10⁻⁶ cm/s.

{"columns": ["smi", "property.name", "observed.value"],
 "data": [
  ["CCN(c1cc2oc(-c3ccc(F)cc3)c(C(=O)NC)c2cc1-c1cccc(C(=O)NC2(c3ncccn3)CC2)c1)S(C)(=O)=O", "Papp B→A at 2 h, 3 µM", 13],
  ["CCN(c1cc2oc(-c3ccc(F)cc3)c(C(=O)NC)c2cc1-c1ccc(OC)c(C(=O)NC2(c3ncccn3)CC2)c1)S(C)(=O)=O", "Papp B→A at 2 h, 3 µM", 18.5],
  ["CCN(C(C)=O)c1cc2oc(-c3ccc(F)cc3)c(C(=O)NC)c2cc1-c1ccc(OC)c(C(=O)NC2(c3ncccn3)CC2)c1", "Papp B→A at 2 h, 3 µM", 30.8]
]}

Batch request: Papp B→A at 2 h, 3 µM for each of the following molecules.
1. CCN(C(=O)N(C)C)c1cc2oc(-c3ccc(F)cc3)c(C(=O)NC)c2cc1-c1ccc(OC)c(C(=O)NC2(c3ncccn3)CC2)c1
2. CCN(c1cc2oc(-c3ccc(F)cc3)c(C(=O)NC)c2cc1-c1cc(F)c(F)c(C(=O)NC2(c3ncccn3)CC2)c1)S(C)(=O)=O
3. CCN(c1cc2oc(-c3ccc(F)cc3)c(C(=O)NC)c2cc1-c1cc(Cl)c(OC)c(C(=O)NC2(c3ncccn3)CC2)c1)S(C)(=O)=O

Result:
[47.9, 62.3, 11.4]
